target: T1, extracellular domain of rhesus monkey BCMA (rhesus monkey, UniProt F7FFA0 1-53); experiment: Octet BLI; Fab 200 nM
T1 construct: extracellular domain; also called RhBCMA
T1 sequence (F7FFA0 entry or part of it): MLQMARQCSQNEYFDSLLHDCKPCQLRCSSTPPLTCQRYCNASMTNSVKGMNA
metric_name: Kd (nM)
Supply the numeric figure in nM, leaving out any unit text.

INSERT INTO assay_data (binder, recorded_result) VALUES
  ('AB200-R1a-Fab_Vk30 (Fab, V domains shown) VH: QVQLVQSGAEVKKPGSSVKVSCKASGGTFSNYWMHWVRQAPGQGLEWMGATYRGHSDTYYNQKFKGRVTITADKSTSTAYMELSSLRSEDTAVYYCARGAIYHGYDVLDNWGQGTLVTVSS VL: DIQMTQSPSSLSASVGDRVTITCTASQSISNYINWYQQKPGKAPKLLIYYTSNLHSGVPSRFSGSGSGTDFTLTISSLQPEDFATYYCQQYRKLPWTFGQGTKLEIKR', 4.78);

As a next step, examine the binder that follows.
Quick one: Kd of AB200-R1a-Fab_Vk12 (Fab, V domains shown) VH: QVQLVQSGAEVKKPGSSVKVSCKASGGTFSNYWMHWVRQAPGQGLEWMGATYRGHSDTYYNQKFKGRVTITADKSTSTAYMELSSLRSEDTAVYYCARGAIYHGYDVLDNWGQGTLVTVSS VL: DIQMTQSPSSLSASVGDRVTITCSASQDISNYLNWYQQKPGKAPKLLIYYATNLHSGVPSRFSGSGSGTDFTLTISSLQPEDFATYYCQQYRRLPWTFGQGTKLEIKR ? 16.8
